# reported DC50; entries follow
TARGET ENTITY: Nanoluciferase-BRD9 fusion protein (3×FLAG-NLuc-BRD9) (Homo sapiens (Human))
EXPERIMENT: SYO1 BRD9 NanoLuc degradation assay
Format: cell-based
CONDITION NOTES: SYO-1 cells expressing 3×FLAG-NLuc-BRD9, 6 hours, 1 μM top dose; read-out: SYO1 BRD9-NanoLuc degradation IC50

| MOLECULE | DC50 |
| --- | --- |
| COc1cc(-c2cn(C)c(=O)c3cnccc23)cc(OC)c1CN(C)CC(=O)NCCCCCCCCCC(=O)N[C@H](C(=O)N1C[C@H](O)C[C@H]1C(=O)NCc1ccc(-c2scnc2C)cc1)C(C)(C)C (stereo in doubt) [Compound D18] | < 10 nM |
| COc1cc(-c2cn(C)c(=O)c3cnccc23)cc(OC)c1CN(C)Cc1cccc2c1C(=O)N(C1CCC(=O)NC1=O)C2=O (centres unmarked) [Compound D15, formic acid] | > 1000 nM |
| COc1cc(-c2cn(C)c(=O)c3cnccc23)cc(OC)c1CN(C)CC(=O)N(C)CCCCCNc1cccc2c1C(=O)N(C1CCC(=O)NC1=O)C2=O (centres unmarked) [Compound D7, formic acid] | 10 to 100 nM |
| COc1cc(-c2cn(C)c(=O)c3cnccc23)cc(OC)c1CN(C)CC(=O)NCCCCCNc1cccc2c1C(=O)N(C1CCC(=O)NC1=O)C2=O (centres unmarked) [Compound D3, formic acid] | 10 to 100 nM |
| COc1cc(-c2cn(C)c(=O)c3cnccc23)cc(OC)c1CN(C)C(=O)CCCCOc1cccc2c1C(=O)N(C1CCC(=O)NC1=O)C2=O (centres unmarked) [Compound D12] | < 10 nM |
| COc1cc(-c2cn(C)c(=O)c3cnccc23)cc(OC)c1CN(C)C(=O)CCCOc1cccc2c1C(=O)N(C1CCC(=O)NC1=O)C2=O (centres unmarked) [Compound D11] | < 10 nM |

Lookup result for COc1cc(-c2cn(C)c(=O)c3cnccc23)cc(OC)c1CN(C)C(=O)CCOc1cccc2c1C(=O)N(C1CCC(=O)NC1=O)C2=O (centres unmarked) [Compound D14] ; measured DC50: > 1000 nM

Lookup result for COc1cc(-c2cn(C)c(=O)c3cnccc23)cc(OCC(=O)NCCCCCCCCNc2cccc3c2C(=O)N(C2CCC(=O)NC2=O)C3=O)c1CN(C)C (centres unmarked) [Compound D9] ; measured DC50: < 10 nM

# molecule COc1cc(-c2cn(C)c(=O)c3cnccc23)cc(OC)c1CN(C)CCN(C)CCOCCOc1cccc2c1C(=O)N(C1CCC(=O)NC1=O)C2=O (centres unmarked) [Compound D1, formic acid] ; its DC50 = 100 to 1000 nM

get_value(item= COc1cc(-c2cn(C)c(=O)c3cnccc23)cc(OC)c1CN(C)CC(=O)NCCCCCCCCNC(=O)COc1cccc2c1C(=O)N(C1CCC(=O)NC1=O)C2=O (centres unmarked) [Compound D5] , readout=DC50) returns < 10 nM

Consider COc1cc(-c2cn(C)c(=O)c3cnccc23)cc(OC)c1CN(C)CCOCCOCC(=O)N[C@H](C(=O)N1C[C@H](O)C[C@H]1C(=O)NCc1ccc(-c2scnc2C)cc1)C(C)(C)C [Compound D20] . Its measured DC50 is > 1000 nM
